Tested on: P12-Ichikawa
Test: cell viability relative to DMSO control; higher = less cytotoxic
Settings: RPMI 5 mM glucose + 10% dialyzed FBS; 48 h; 0.0211 µM
Measurement name: cell viability

Some compounds with known cell viability results, for comparison:
[
  {
    "Compound": "CC1=CC(=CC(=C1C\\C2=N\\CCN2)C)C(C)(C)C",
    "cell viability": "100%"
  },
  {
    "Compound": "Oc1nc(-c2ccc(C(F)(F)F)cc2)nc2c1CSCC2",
    "cell viability": "86.3%"
  },
  {
    "Compound": "COC1=C(OCCCN2CCOCC2)C=CC\\3=C1/N=C(/NC(=O)C4=CN=C(N)N=C4)N5CC/N=C35",
    "cell viability": "99.1%"
  },
  {
    "Compound": "COc1cccc2c1C(=O)c1c(O)c3c(c(O)c1C2=O)C[C@@](O)(C(=O)CO)C[C@@H]3O[C@H]1C[C@H](N)[C@H](O)[C@H](C)O1",
    "cell viability": "107%"
  },
  {
    "Compound": "COc1ccc(C(=O)CC2(O)C(=O)Nc3c(Cl)ccc(Cl)c32)cc1 (centres undefined)",
    "cell viability": "115%"
  },
  {
    "Compound": "CNc1nc(Nc2cnn([C@H]3CCN(C4COC4)C[C@@H]3F)c2Cl)ncc1C(F)(F)F",
    "cell viability": "120%"
  },
  {
    "Compound": "Cc1cccc(Nc2ccncc2[S+](=O)([O-])NC(=O)NC(C)C)c1",
    "cell viability": "90%"
  },
  {
    "Compound": "C[C@@H](CN1CC(=O)NC(=O)C1)N1CC(=O)NC(=O)C1",
    "cell viability": "110%"
  }
]

Input: Reported cell viability, compound O=C(c1ccccc1)c1ccc2n1CCC2C(=O)O (centres undefined) : ____
Output: 107%

----------
System: P12-Ichikawa
Assay: cell viability relative to DMSO control; higher = less cytotoxic
Settings: RPMI 5 mM glucose + 10% dialyzed FBS; 48 h; 0.00702 µM
Measurement name: cell viability (%)
Numbers only, in %.

Some compounds with known cell viability results, for comparison:
[
  {
    "Compound": "CC12CC3CC(C)(C1)CC(N)(C3)C2",
    "Test result": 116
  },
  {
    "Compound": "COC1=C(OCCCN2CCOCC2)C=CC\\3=C1/N=C(/NC(=O)C4=CN=C(N)N=C4)N5CC/N=C35",
    "Test result": 98.3
  },
  {
    "Compound": "C=CC(=O)Nc1cc2c(Nc3ccc(F)c(Cl)c3)ncnc2cc1OCCCN1CCOCC1",
    "Test result": 119
  },
  {
    "Compound": "COC(=O)C\\1=C(C)\\N\\C(=C(/C1C2=CC=CC3=NON=C23)C(=O)OC(C)C)C (stereo not given)",
    "Test result": 88.5
  }
]

Input: # returns recorded cell viability (system: P12-Ichikawa) for Cc1ccnc2c1NC(=O)c1cccnc1N2C1CC1
Output: 99.9

----------
Could you please report measured cell viability for the items listed next?
System: NOMO1
Test: cell viability relative to DMSO control; higher = less cytotoxic
Settings: RPMI 5 mM glucose + 10% FBS; 48 h; 0.569 µM

Some molecules with known cell viability results, for comparison:
[
  {
    "Molecule": "Oc1nc(-c2ccc(C(F)(F)F)cc2)nc2c1CSCC2",
    "cell viability": "96.2%"
  },
  {
    "Molecule": "CNC(=O)c1ccc(Nc2cc(Nc3ccccc3[S+](=O)([O-])C(C)C)c3cc[nH]c3n2)nc1",
    "cell viability": "108%"
  },
  {
    "Molecule": "NC(=O)c1ccc(N(C(N)=O)c2c(F)cccc2F)nc1-c1ccc(F)cc1F",
    "cell viability": "95.2%"
  },
  {
    "Molecule": "Cc1ccc([S+](=O)([O-])OCC(=O)Nc2ccc(C(=O)O)c(O)c2)cc1",
    "cell viability": "133%"
  }
]

Each of the following entries comes with a recorded value; kindly state cell viability for each.
1. C[C@@H]1CCO[C@H]2CN\3/C=C(/C(=O)NCC4=C(F)C=C(F)C=C4)C(=O)\C(=C3C(=O)N12)O
2. Nc1ccc([S+](=O)([O-])Nc2ccnn2-c2ccccc2)cc1
3. C[C@@H](CN1CC(=O)NC(=O)C1)N1CC(=O)NC(=O)C1
4. CC(C)OC(=O)[C@H](C)N[P@](=O)(OC[C@H]1O[C@@H](N2\C=C/C(=O)NC2=O)[C@](C)(F)[C@@H]1O)OC3=CC=CC=C3
5. COc1ccc(C(=O)c2c(C)n(CCN3CCOCC3)c3cc(I)ccc23)cc1
6. CNCC[C@H](Oc1cccc2ccccc12)c1cccs1
7. CCc1ccc(/C=C2/SC(=S)NC2=O)cc1

Output:
["84.5%", "99.4%", "55.9%", "95.7%", "119%", "124%", "88.1%"]

Each of the following entries comes with a recorded value; kindly state cell viability for each.
1. COc1ccc2c(c1)[C@]13CCCCC1C(C2)N(C)CC3 (stereo partly specified)
2. COc1cc[nH]c2ncc(C(=O)C(=O)N3CCN(C(=O)c4ccccc4)C[C@H]3C)c1-2
3. CN(C)CC(C)(C)CNc1nn2c(-c3ccccc3)nnc2cc1C1CCC1
4. Cc1ccnc2c1NC(=O)c1cccnc1N2C1CC1
5. Cc1cccc(Nc2ccncc2[S+](=O)([O-])NC(=O)NC(C)C)c1

Output:
1: 109%; 2: 100%; 3: 111%; 4: 93.3%; 5: 89.4%
